Hello, the source for this data is patent US20140356358A1, in case you need it.

Target Entity: T1, human neonatal Fc receptor (hFcRn) (human, UniProt P55899 24-290; P61769 21-119)
T1 construct: Biotinylated in the ELISA, Octet and yeast assays; also called human FcRn; huFcRn
T1 sequence (P55899 24-290 limits assumed, chain 1 of 2): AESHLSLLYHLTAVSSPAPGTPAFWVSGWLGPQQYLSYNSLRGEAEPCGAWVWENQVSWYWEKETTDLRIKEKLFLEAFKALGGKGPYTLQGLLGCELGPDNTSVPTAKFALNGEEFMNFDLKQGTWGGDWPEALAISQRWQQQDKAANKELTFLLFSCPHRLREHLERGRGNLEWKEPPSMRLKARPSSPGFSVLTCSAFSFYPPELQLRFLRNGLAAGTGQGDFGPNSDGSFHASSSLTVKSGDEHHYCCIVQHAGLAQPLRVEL
T1 sequence (P61769 21-119 limits assumed, chain 2 of 2): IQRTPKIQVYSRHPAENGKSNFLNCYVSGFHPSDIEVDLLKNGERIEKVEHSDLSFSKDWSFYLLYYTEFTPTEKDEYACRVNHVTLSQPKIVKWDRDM
Assay Explanation: phage ELISA pH 7.4;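 note: higher score means stronger binding and above about 3 to 5 exceeds background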
Recorded ELISA score for the following binders
Please respond with just the number, no unit label.

// known answers, use as guide
variant Fc-fragment Fc-5-64 (other, soluble elsewhere) EPKSCDKTHTCPPCPAPELLGGPSVFLFPPKPKDTLMISRTPEVTCVVVDVSHEDPEVKFNWYVDGVEVHNAKTKPREEQYNSTYRVVSVLTVLHQDWLNGKEYKCKVSNKALPAPIEKTISKAKGQPREPQVYTLPPSRDELTKNQVSLTCLVKGFYPSDIAVEWESNGGCHSFKHFCGGGQPENNYKTTPPVLDSDGSFFLYSKLTVDKSRWQQGNVFSCSVMHEALHNHYTQKSLSLSPGK ... 0.4
L5 isolate with insertion SEQ ID NO: 438 (other) EPKSCDKTHTCPPCPAPELLGGPSVFLFPPKPKDTLMISRTPEVTCVVVDVSHEDPEVKFNWYVDGVEVHNAKTKPREEQYNSTYRVVSVLTVLHQDWLNGKEYKCKVSNKALPAPIEKTISKAKGQPREPQVYTLPPSRDELTKNQVSLTCLVKGFYPSDIAVEWESNGGCKSMISMCGGGQPENNYKTTPPVLDSDGSFFLYSKLTVDKSRWQQGNVFSCSVMHEALHNHYTQKSLSLSPGK ... 0.2
L5 isolate with insertion SEQ ID NO: 447 (other) EPKSCDKTHTCPPCPAPELLGGPSVFLFPPKPKDTLMISRTPEVTCVVVDVSHEDPEVKFNWYVDGVEVHNAKTKPREEQYNSTYRVVSVLTVLHQDWLNGKEYKCKVSNKALPAPIEKTISKAKGQPREPQVYTLPPSRDELTKNQVSLTCLVKGFYPSDIAVEWESNGGCMFETKWCGGGQPENNYKTTPPVLDSDGSFFLYSKLTVDKSRWQQGNVFSCSVMHEALHNHYTQKSLSLSPGK ... 1.2

# input for lookup
Entry under test: L5 isolate with insertion SEQ ID NO: 397 (other) EPKSCDKTHTCPPCPAPELLGGPSVFLFPPKPKDTLMISRTPEVTCVVVDVSHEDPEVKFNWYVDGVEVHNAKTKPREEQYNSTYRVVSVLTVLHQDWLNGKEYKCKVSNKALPAPIEKTISKAKGQPREPQVYTLPPSRDELTKNQVSLTCLVKGFYPSDIAVEWESNGGCPFEFTQCGGGQPENNYKTTPPVLDSDGSFFLYSKLTVDKSRWQQGNVFSCSVMHEALHNHYTQKSLSLSPGK . Its ELISA score was 1.8
